# study system: α4β2* nicotinic receptor (Rattus norvegicus, UniProt P09483+P12390)
# Sequence (P09483 31-630): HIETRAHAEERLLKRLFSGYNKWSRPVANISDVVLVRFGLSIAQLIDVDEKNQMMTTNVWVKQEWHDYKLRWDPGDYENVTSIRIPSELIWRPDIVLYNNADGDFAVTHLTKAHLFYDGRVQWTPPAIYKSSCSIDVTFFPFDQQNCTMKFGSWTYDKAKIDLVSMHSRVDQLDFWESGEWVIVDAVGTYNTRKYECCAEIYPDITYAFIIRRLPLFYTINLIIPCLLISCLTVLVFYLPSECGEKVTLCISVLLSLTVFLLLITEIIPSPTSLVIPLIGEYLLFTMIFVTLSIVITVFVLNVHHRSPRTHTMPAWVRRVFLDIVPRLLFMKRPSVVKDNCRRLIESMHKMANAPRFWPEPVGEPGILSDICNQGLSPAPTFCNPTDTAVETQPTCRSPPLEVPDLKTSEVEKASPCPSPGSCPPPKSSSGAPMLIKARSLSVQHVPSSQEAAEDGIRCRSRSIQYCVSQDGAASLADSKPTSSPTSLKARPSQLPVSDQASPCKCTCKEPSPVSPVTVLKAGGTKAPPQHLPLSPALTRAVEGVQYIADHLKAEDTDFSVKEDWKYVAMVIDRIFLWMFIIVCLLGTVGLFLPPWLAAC
# Sequence (P12390 25-500): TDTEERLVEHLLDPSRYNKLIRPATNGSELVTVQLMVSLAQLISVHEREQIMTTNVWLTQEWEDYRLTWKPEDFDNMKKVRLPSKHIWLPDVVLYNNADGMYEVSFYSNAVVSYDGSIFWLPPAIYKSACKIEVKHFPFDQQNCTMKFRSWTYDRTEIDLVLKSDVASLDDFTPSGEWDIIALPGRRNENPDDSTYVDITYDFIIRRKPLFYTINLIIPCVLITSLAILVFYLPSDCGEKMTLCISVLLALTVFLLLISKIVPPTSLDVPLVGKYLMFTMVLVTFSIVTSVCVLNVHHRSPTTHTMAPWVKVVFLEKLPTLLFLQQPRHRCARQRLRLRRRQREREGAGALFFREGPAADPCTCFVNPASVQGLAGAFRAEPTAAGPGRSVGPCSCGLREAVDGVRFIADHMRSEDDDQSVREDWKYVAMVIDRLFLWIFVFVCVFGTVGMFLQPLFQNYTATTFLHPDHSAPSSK
# assay comment: High affinity [3H]nicotine binding assay
# Parameters: The pellet containing the striatal membranes was resuspended; from tissue; host or cells: rat striatal membranes
# experimental context: Table 1; rat striatal membranes; read-out: [3H]Nicotine Binding (Ki) α4β2*
I'd appreciate it if you could supply Ki values for the items below.

[ask] Value wanted: Ki (α4β2* nicotinic receptor (Rattus norvegicus, UniProt P09483+P12390)) of entry CN1[C@H](/C=C/c2ccccc2)CCC[C@H]1/C=C/c1ccccc1 [Compound 15]
[reply] 11.9 µM

[ask] Value wanted: Ki (α4β2* nicotinic receptor (Rattus norvegicus, UniProt P09483+P12390)) of entry CN1[C@@H](CC(=O)c2ccccc2)CCC[C@H]1CC(=O)c1ccccc1 [Compound 3]
[reply] 37.1 µM

[ask] Value wanted: Ki (α4β2* nicotinic receptor (Rattus norvegicus, UniProt P09483+P12390)) of entry CN1[C@@H](CC(=O)c2ccccc2)CCC[C@H]1/C=C/c1ccccc1 [Compound 5]
[reply] 0.44 µM

[ask] Value wanted: Ki (α4β2* nicotinic receptor (Rattus norvegicus, UniProt P09483+P12390)) of entry COc1ccc(CC[C@H]2CCC[C@@H](CCc3ccc(OC)cc3)N2C)cc1 [Compound 41]
[reply] > 100 µM

[ask] Value wanted: Ki (α4β2* nicotinic receptor (Rattus norvegicus, UniProt P09483+P12390)) of entry COc1cccc(CC[C@H]2CCC[C@@H](CCc3cccc(OC)c3)N2)c1 [Compound 38]
[reply] > 100 µM

[ask] Value wanted: Ki (α4β2* nicotinic receptor (Rattus norvegicus, UniProt P09483+P12390)) of entry c1ccc(CC[C@H]2CCC[C@@H](CCc3ccccc3)N2)cc1 [Compound 25, 2,6-cis-diphenethylpiperidine]
[reply] > 100 µM

[ask] Value wanted: Ki (α4β2* nicotinic receptor (Rattus norvegicus, UniProt P09483+P12390)) of entry CN1[C@@H](CCc2ccccc2)CCC[C@H]1C[C@H](O)c1ccccc1 [Compound 12]
[reply] 1.21 µM

[ask] Value wanted: Ki (α4β2* nicotinic receptor (Rattus norvegicus, UniProt P09483+P12390)) of entry CN1[C@@H](CCc2ccccc2F)CCC[C@H]1CCc1ccccc1F [Compound 31]
[reply] > 100 µM

[ask] Value wanted: Ki (α4β2* nicotinic receptor (Rattus norvegicus, UniProt P09483+P12390)) of entry CCN1[C@@H](CCc2ccccc2)CCC[C@H]1CCc1ccccc1 [Compound 26, N-ethyl-2,6-cis-diphenethylpiperidine]
[reply] > 100 µM

[ask] Value wanted: Ki (α4β2* nicotinic receptor (Rattus norvegicus, UniProt P09483+P12390)) of entry FC(F)(F)c1cccc(CC[C@H]2CCC[C@@H](CCc3cccc(C(F)(F)F)c3)N2)c1 [Compound 44]
[reply] > 100 µM

[ask] Value wanted: Ki (α4β2* nicotinic receptor (Rattus norvegicus, UniProt P09483+P12390)) of entry OCc1ccc(CC[C@H]2CCC[C@@H](CCc3ccc(CO)cc3)N2)cc1 [Compound 48]
[reply] > 100 µM

[ask] Value wanted: Ki (α4β2* nicotinic receptor (Rattus norvegicus, UniProt P09483+P12390)) of entry CN1[C@@H](CCc2cccc(C(F)(F)F)c2)CCC[C@H]1CCc1cccc(C(F)(F)F)c1 [Compound 45]
[reply] > 100 µM

[ask] Value wanted: Ki (α4β2* nicotinic receptor (Rattus norvegicus, UniProt P09483+P12390)) of entry Cc1ccc(S(=O)(=O)O[C@@H](C[C@H]2CCC[C@@H](CC(=O)c3ccccc3)N2C)c2ccccc2)cc1 [Compound 2]
[reply] 0.011 µM

[ask] Value wanted: Ki (α4β2* nicotinic receptor (Rattus norvegicus, UniProt P09483+P12390)) of entry CN1[C@H](CCc2ccccc2)CCC[C@@H]1C[C@@H](O)c1ccccc1 [Compound 10]
[reply] > 100 µM

[ask] Value wanted: Ki (α4β2* nicotinic receptor (Rattus norvegicus, UniProt P09483+P12390)) of entry COc1ccccc1CC[C@H]1CCC[C@@H](CCc2ccccc2OC)N1C [Compound 37]
[reply] > 100 µM

[ask] Value wanted: Ki (α4β2* nicotinic receptor (Rattus norvegicus, UniProt P09483+P12390)) of entry CN1[C@@H](/C=C/c2ccccc2)CCC[C@@H]1/C=C/c1ccccc1 [Compound 16]
[reply] 12.3 µM

[ask] Value wanted: Ki (α4β2* nicotinic receptor (Rattus norvegicus, UniProt P09483+P12390)) of entry Clc1ccc(CC[C@H]2CCC[C@@H](CCc3ccc(Cl)cc3Cl)N2)c(Cl)c1 [Compound 50]
[reply] > 100 µM

[ask] Value wanted: Ki (α4β2* nicotinic receptor (Rattus norvegicus, UniProt P09483+P12390)) of entry COc1ccc(CC[C@H]2CCC[C@@H](CCc3ccc(OC)cc3)N2)cc1 [Compound 40]
[reply] > 100 µM

[ask] Value wanted: Ki (α4β2* nicotinic receptor (Rattus norvegicus, UniProt P09483+P12390)) of entry Fc1ccccc1CC[C@H]1CCC[C@@H](CCc2ccccc2F)N1 [Compound 30, 2,6-cis-di-(o-fluorophenethyl)piperidine]
[reply] > 100 µM

[ask] Value wanted: Ki (α4β2* nicotinic receptor (Rattus norvegicus, UniProt P09483+P12390)) of entry CN1[C@H](C[C@H](O)c2ccccc2)CCC[C@@H]1/C=C/c1ccccc1 [Compound 8]
[reply] 9.8 µM

[ask] Value wanted: Ki (α4β2* nicotinic receptor (Rattus norvegicus, UniProt P09483+P12390)) of entry CN1[C@H](/C=C/c2ccccc2)CCC[C@@H]1/C=C/c1ccccc1 [Compound 14]
[reply] > 100 µM

[ask] Value wanted: Ki (α4β2* nicotinic receptor (Rattus norvegicus, UniProt P09483+P12390)) of entry CN1[C@@H](CCc2ccccc2)CCC[C@H]1CCc1ccccc1 [Compound 17]
[reply] 77 µM

[ask] Value wanted: Ki (α4β2* nicotinic receptor (Rattus norvegicus, UniProt P09483+P12390)) of entry CC(=O)OCc1ccc(CC[C@H]2CCC[C@@H](CCc3ccc(COC(C)=O)cc3)N2)cc1 [Compound 49]
[reply] > 100 µM

[ask] Value wanted: Ki (α4β2* nicotinic receptor (Rattus norvegicus, UniProt P09483+P12390)) of entry CN1[C@@H](C[C@@H](O)c2ccccc2)CCC[C@H]1C[C@H](O)c1ccccc1 [Compound 4, lobelanidine]
[reply] 3.1 µM

[ask] Value wanted: Ki (α4β2* nicotinic receptor (Rattus norvegicus, UniProt P09483+P12390)) of entry CN1[C@@H](CCc2cccc(F)c2)CCC[C@H]1CCc1cccc(F)c1 [Compound 33]
[reply] > 100 µM

[ask] Value wanted: Ki (α4β2* nicotinic receptor (Rattus norvegicus, UniProt P09483+P12390)) of entry CN1[C@@H](CCc2ccc(F)cc2)CCC[C@H]1CCc1ccc(F)cc1 [Compound 35]
[reply] > 100 µM

[ask] Value wanted: Ki (α4β2* nicotinic receptor (Rattus norvegicus, UniProt P09483+P12390)) of entry Fc1ccc(CC[C@H]2CCC[C@@H](CCc3ccc(F)cc3)N2)cc1 [Compound 34, 2,6-cis-di-(p-fluorophenethyl)piperidine]
[reply] > 100 µM

[ask] Value wanted: Ki (α4β2* nicotinic receptor (Rattus norvegicus, UniProt P09483+P12390)) of entry COc1cccc(CC[C@H]2CCC[C@@H](CCc3cccc(OC)c3)N2C)c1 [Compound 39]
[reply] > 100 µM

[ask] Value wanted: Ki (α4β2* nicotinic receptor (Rattus norvegicus, UniProt P09483+P12390)) of entry Cc1ccc(CC[C@H]2CCC[C@@H](CCc3ccc(C)cc3)N2)cc1 [Compound 42, 2,6-cis-di-(p-methylphenethyl)piperidine]
[reply] > 100 µM

[ask] Value wanted: Ki (α4β2* nicotinic receptor (Rattus norvegicus, UniProt P09483+P12390)) of entry CN1[C@@H](CCc2ccc(Cl)cc2Cl)CCC[C@H]1CCc1ccc(Cl)cc1Cl [Compound 51]
[reply] > 100 µM

[ask] Value wanted: Ki (α4β2* nicotinic receptor (Rattus norvegicus, UniProt P09483+P12390)) of entry COc1ccccc1CC[C@H]1CCC[C@@H](CCc2ccccc2OC)N1 [Compound 36]
[reply] > 100 µM

[ask] Value wanted: Ki (α4β2* nicotinic receptor (Rattus norvegicus, UniProt P09483+P12390)) of entry c1cc2c(cc1CC[C@H]1CCC[C@@H](CCc3ccc4c(c3)OCO4)N1)OCO2 [Compound 28]
[reply] > 100 µM

This collection of values is drawn from patent US7368443B2.
